Each recorded value in this set is attributed to paper PMC10507113.

Target: TadNaC2 (Trichoplax adhaerens)
Construct: full-length cDNA cloned from whole-animal RNA, untagged in pIRES2-EGFP (pTadNaC2-IR-EGFP), CHO-K1 cells; homotrimer modelled; residues F70, T72, D75, E77, H80, E104, E105, H109, W165, F188, L198, R201, K203, S228, P229, W276, L332, S336, D413
Sequence (A0A5J6BSS6 1-548): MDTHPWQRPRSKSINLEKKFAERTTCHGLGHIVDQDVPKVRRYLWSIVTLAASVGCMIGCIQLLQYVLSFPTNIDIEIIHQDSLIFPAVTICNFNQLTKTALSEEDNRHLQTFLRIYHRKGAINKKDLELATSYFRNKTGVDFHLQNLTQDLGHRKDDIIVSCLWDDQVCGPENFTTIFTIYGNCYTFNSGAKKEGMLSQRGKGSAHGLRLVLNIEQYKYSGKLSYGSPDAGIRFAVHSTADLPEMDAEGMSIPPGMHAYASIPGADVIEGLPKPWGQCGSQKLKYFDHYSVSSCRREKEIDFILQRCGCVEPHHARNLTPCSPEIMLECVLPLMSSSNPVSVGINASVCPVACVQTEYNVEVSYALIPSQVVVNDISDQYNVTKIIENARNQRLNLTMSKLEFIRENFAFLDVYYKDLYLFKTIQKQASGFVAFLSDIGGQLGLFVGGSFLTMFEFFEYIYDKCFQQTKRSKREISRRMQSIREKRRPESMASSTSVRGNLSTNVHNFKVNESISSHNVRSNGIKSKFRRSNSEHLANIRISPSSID
Experiment: whole-cell patch clamp, CHO-K1, amiloride dose-response of peak inward current
Recorded metric: IC50

- N=C(N)NC(=O)c1nc(Cl)c(N)nc1N [amiloride]: 52 µM
